# Measurement Target: Baculoviral IAP repeat-containing protein 2 (Homo sapiens, UniProt Q13490)
# Sequence (Q13490 whole entry): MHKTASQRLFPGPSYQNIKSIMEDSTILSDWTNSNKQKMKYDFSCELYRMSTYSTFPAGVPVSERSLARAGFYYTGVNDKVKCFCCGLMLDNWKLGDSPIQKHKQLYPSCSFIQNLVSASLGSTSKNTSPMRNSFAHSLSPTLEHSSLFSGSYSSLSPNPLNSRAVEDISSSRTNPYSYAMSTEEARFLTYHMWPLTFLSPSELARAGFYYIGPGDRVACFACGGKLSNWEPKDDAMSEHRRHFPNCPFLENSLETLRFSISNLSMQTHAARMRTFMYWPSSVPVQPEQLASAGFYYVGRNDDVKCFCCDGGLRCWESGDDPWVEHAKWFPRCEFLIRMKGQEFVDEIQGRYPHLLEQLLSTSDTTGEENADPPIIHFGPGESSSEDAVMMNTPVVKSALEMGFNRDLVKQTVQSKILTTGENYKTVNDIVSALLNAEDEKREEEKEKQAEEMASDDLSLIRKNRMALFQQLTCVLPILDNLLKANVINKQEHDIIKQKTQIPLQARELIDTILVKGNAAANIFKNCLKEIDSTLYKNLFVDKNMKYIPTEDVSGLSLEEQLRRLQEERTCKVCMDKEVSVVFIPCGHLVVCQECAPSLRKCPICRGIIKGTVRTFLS
# Assay Summary: Promotion of flag-tagged cIAP1 degradation in human HT1080 cells assessed as decrease in cIAPI production after 3 hrs
Endpoint: IC50

Incoming: Field request: IC50 | item: CCCCC[C@H](CC(=O)NO)C(=O)N[C@H](C(=O)OC)C(C)(C)C
Outgoing: > 20 µM
